# measurement_description: gradient 5% acetonitrile 3 min, to 50% in 2 min, to 85% in 15 min, held 3 min, 100 µL/min
# condition: column: Zorbax Extend-C18 2.1 x 50 mm; eluents: water / acetonitrile, 0.1% formic acid
RP-LC retention time vs 800 s: less than gives Satisfied; not less than gives Not satisfied.

I'd appreciate it if you could check whether Cc1ncsc1C1N(C2CCN(C(=O)Cn3ccnc3)CC2)C(=O)C12CCCC2 (stereo not drawn) has RP-LC retention time smaller than 800 s.
Satisfied

I'd appreciate it if you could check whether CCC(=O)Nc1c(C)noc1/C=C\c1ccc(S(=O)(=O)N2CCN(c3ccccn3)CC2)cc1 has RP-LC retention time smaller than 800 s.
Satisfied

----------
# measurement_description: gradient 5% acetonitrile 3 min, to 50% in 2 min, to 85% in 15 min, held 3 min, 100 µL/min
# condition: column: Zorbax Extend-C18 2.1 x 50 mm; eluents: water / acetonitrile, 0.1% formic acid
// reported RP-LC retention time per item
Reply numerically in s, unit not repeated.

# annotated cases, reported RP-LC retention time shown
INSERT INTO results (compound, measured_result) VALUES
  ('Cc1ccc(CNC(=O)Cn2nc(N3CCCC3)c3ccccc3c2=O)cc1', 908),
  ('O=C(NCc1cc(F)cc(F)c1)C1CCN(c2cncnc2N2CCCCC2)CC1', 700),
  ('CCc1noc(NC(C)=O)c1-c1ccc(C)c(S(=O)(=O)Nc2ccc(F)c(Cl)c2)c1', 875),
  ('Cc1ccc(-c2noc(-c3cccc(S(=O)(=O)Nc4cccc(C#N)c4)c3)n2)cc1', 1160),
  ('Cc1nc(-c2ccncc2)nc2c1CCC(=O)N2Cc1ccncc1', 540),
  ('O=C(NC1CC1)[C@@H]1C[C@H](Oc2cccnc2)CN1C(=O)c1cccs1', 574);

Note RP-LC retention time for the compound shown: Cc1cccc(Nc2c(-c3ccc(Br)cc3)nc3cnccn23)c1C
1140

Note RP-LC retention time for the compound shown: CCn1cnc2ccc(-c3noc(COc4ccccc4OC)n3)cc21
712

Note RP-LC retention time for the compound shown: O=C(COc1ccccc1F)NCC(O)(c1ccccc1)C(F)(F)F (configuration not stated)
860

Note RP-LC retention time for the compound shown: COc1ccc(NC(=O)Cn2cc(C(=O)C3CC3)c3ccccc32)cc1
864

----------
// reported RP-LC retention time per item
# measurement_description: gradient 5% acetonitrile 3 min, to 50% in 2 min, to 85% in 15 min, held 3 min, 100 µL/min
# condition: column: Zorbax Extend-C18 2.1 x 50 mm; eluents: water / acetonitrile, 0.1% formic acid
Reply numerically in s, unit not repeated.

# annotated cases, reported RP-LC retention time shown
INSERT INTO measurements (compound, measured_result) VALUES
  ('COC(=O)c1sccc1NC(=O)N1CCc2c([nH]c3ccccc23)C1c1ccc(OC)cc1 (stereo unspecified)', 1230),
  ('Cc1cc(S(=O)(=O)N2CCC(n3cnnc3C)CC2)ccc1Cl', 739),
  ('CCc1cc(C(=O)N2CCCC2)nc2cc(-c3ccsc3)nn12', 950),
  ('CC(C)Sc1cc2c(cc1NC(=O)Cc1cccc(F)c1)n(C)c(=O)n2C', 987),
  ('Cc1ccc(-c2ncc3c(=O)n(CC(=O)N4CCCC4)c(=O)n(C)c3n2)cc1', 888);

Now turn to the next compound.
Note RP-LC retention time for the compound shown: Cc1cc(F)ccc1N1C(=O)CN(S(=O)(=O)c2ccccc2)CC1(C)C(=O)NC1CCCC1 (stereo unspecified)
928
